B1: INTS4 (parent)
chain: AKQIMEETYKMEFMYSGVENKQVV

Variants of: B1
test_protocol: protein stability index of a GFP-peptide fusion (GPS, HEK-293T) (PSI 1-6); higher = more stable;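 also: lentivirally expressed fusions sorted by FACS into six bins by GFP to DsRed ratio, PSI derived from sequencing read proportions per bin multiplied by bin number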
condition: c terminus: a fixed tail appended
assay_readout: protein stability index
Respond with the number and no other words.

K2I
2.81

Query block: Quick one: protein stability index for G17S ?
Result block: 1.59

Query block: Given M5H , state its recorded protein stability index.
Result block: 2.76

Query block: Could you share which protein stability index value was measured for E12T ?
Result block: 2.33

Query block: Give its protein stability index value. Item: E12G
Result block: 2.66

Query block: # protein stability index lookup, item E7S
Result block: 1.67

Query block: Dear colleague, I am looking for the recorded protein stability index of the following variant: V18Q
Result block: 2.34

Query block: Field request: protein stability index | item: Y15M
Result block: 2.54

Query block: Returns the measured protein stability index for the input variant. Input: E12H
Result block: 2.32

Query block: // query protein stability index value for entry I4N
Result block: 2.58

Query block: Need protein stability index, item V23P
Result block: 1.42

Query block: Please look up its protein stability index: M5A
Result block: 3.14

Query block: Which value of protein stability index has been reported for F13M in the records?
Result block: 1.86

Query block: Field request: protein stability index | item: E7D
Result block: 1.68

Query block: What value of protein stability index has been reported for the following variant? V23R
Result block: 1.95
